# System: U2OS
# experimentalProtocol: Multiplex assay against U2OS
# Format: toxicity, cell-based
# appliedConditions: human, 48 h, 1 µM, compound concentration 1 uM, replicate 1
// reported Population Apoptotic (%) for each item listed
measurementType: Population Apoptotic (%)

* O=C1N/C(=N/c2ccccc2F)S/C1=C\c1ccc(C(=O)O)cc1 | 27
* Cc1cn(-c2cc(NC(=O)c3ccc(C)c(Nc4nccc(-c5cccnc5)n4)c3)cc(C(F)(F)F)c2)cn1 | 65
* O=C(Nc1ccc(-n2nc(-c3cccnc3)cc2C(F)(F)F)cn1)c1ccc(-c2ccccc2)c(F)c1 | 33
* O=C(Nc1ccc(-c2ccnc(Nc3ccc(N4CCOCC4)cc3)n2)cc1)[C@@H]1CCCN1 | 36
* Cc1ccc(C(=O)Nc2cccc(C(F)(F)F)c2)cc1Nc1nc(-c2cccnc2)nc2c1cnn2C | 58
* O=C1NC(=O)C(c2cnc3ccccn23)=C1c1cn2c3c(cc(F)cc13)CN(C(=O)N1CCCCC1)CC2 | 55
* CCc1cccc(CC)c1NC(=O)c1nn(C)c2c1CCc1cnc(Nc3ccc(C(=O)NC4CCN(C)CC4)cc3OC(F)(F)F)nc1-2 | 46
* C=C1/C(=C\C=C2/CCC[C@]3(C)[C@@H]([C@H](C)/C=C/[C@H](C)C(C)C)CC[C@@H]23)C[C@@H](O)C[C@@H]1O | 21
